Origin of the recorded values: ChEMBL document CHEMBL3507680

- assay.method.text: Human HepG2 cell viability assay in 384 well format
- Format: toxicity, cell-based
- Design: dose 125 nL, time 70.5 hour; concentration not given beside the values
- measurement.setup: HepG2 cells, read-out: Inhibition
value.kind: cytotoxicity at 70.5 h (%)
One number for each entry, in %.

Recorded results for 8 compounds are shown here.
compound="CC1CCCN(C(=O)CCc2cccnc2)C1 (configuration not stated)" quantitative_result=-3.28
compound=Cn1nc(COc2cncnc2)c2c1CCN(Cc1ccco1)C2 quantitative_result=6.82
compound=Cc1cc(N2CCN(C(=O)[C@@H]3C[C@@H]4C=C[C@H]3C4)CC2)nc2ccccc12 quantitative_result=-4.89
compound=CCOC(=O)N[C@H]1C[C@@H](C(=O)NCc2cccc(Cl)c2)N(C)C1 quantitative_result=-20.9
compound=Cc1cc(NC(N)=O)ccc1C(=O)N(C)C quantitative_result=4.17
compound="CC(C)n1cc(CN(Cc2ccc(F)cc2)CC2CCCO2)cn1 (configuration not stated)" quantitative_result=15.6
compound="COc1cccc(CN(C)C(C)c2ccco2)c1OCCn1ccnc1 (configuration not stated)" quantitative_result=-6.31
compound="CCC(CO)N(Cc1cccc(-n2cccn2)c1)Cc1cccs1 (configuration not stated)" quantitative_result=-4.44

Provide cytotoxicity at 70.5 h values for the following items, in order.
1. CC(=O)N1CC[C@H]2OCC[C@@H](C(=O)NCc3ccco3)[C@H]2C1
2. O=C(Cn1c(=O)oc2ccccc21)N1Cc2cncnc2C1
3. CC(C)CCNC(=O)c1c(-n2cnnn2)sc2c1CCCC2
4. c1csc(-c2noc(CCCN3CCCC3Cn3cccn3)n2)c1 (configuration not stated)

Found:
1. -12.4
2. -5.29
3. -0.216
4. -8.63

---

- assay.method.text: Human HepG2 cell viability assay in 384 well format
- Assay type: toxicity, cell-based
- Design: dose 125 nL, time 70.5 hour; concentration not given beside the values
- measurement.setup: HepG2 cells, read-out: Inhibition
value.kind: cytotoxicity at 70.5 h
Please state the value followed by its unit.

Recorded results for 6 compounds are shown here.
compound=Cc1cc(CN(C)C(=O)c2ccc(F)cc2F)no1 result=-7.99%
compound=COCCNS(=O)(=O)c1ccc(Cl)c(C(=O)N(C)Cc2sccc2C)c1 result=-12.1%
compound=FC(F)(F)CCc1ccnc(N2CCN(Cc3ccncc3)CC2)n1 result=-13.8%
compound=O=C([C@@H]1COC[C@H]2CN(c3ccncn3)C[C@H]21)N1CCCCO1 result=-6.51%
compound=CCN1CCN(C(=O)c2cnc(Cc3c(Cl)cccc3Cl)nc2O)CC1 result=-4.18%
compound=CCC(CC)NC(=O)c1cncc(Br)c1 result=1.03%

Provide cytotoxicity at 70.5 h values for the following items, in order.
1. Cc1nc(C)c2c(n1)CCN(Cc1nccn1C)CC2
2. Cc1ccc2oc(CN3CCn4nc(CCC(=O)O)cc4C3)c(C)c2c1
3. CCC(CC)(CNC(=O)c1cccn1Cc1cccnc1)N(C)C
4. Cc1nnc(NC(=O)CN2CCCC2c2noc(C(C)C)n2)s1 (configuration not stated)
5. COc1cccc2cc(CNC(=O)N3CCS(=O)(=O)CC3)oc12
6. Cn1nccc1-c1nnn2c1COC(CNCc1nccs1)C2 (configuration not stated)

Found:
1: -8.56%; 2: 32%; 3: -3.43%; 4: -8.98%; 5: 12.1%; 6: 0.565%
